target: T1, hu-sCD47-6His; extracellular domain of human CD47 antigen with 6His-tag (human); assay: SPR Biacore;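 note: antibodies captured on anti-IgG CM5 chip, soluble His-tagged human CD47 flowed over at rising concentrations, five 10 min injections, flow cell 1 as reference, 1:1 model fit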
T1 construct: also called hCD47-his; soluble hCD47
quantity_measured: pKd
Answers are plain numbers, as −log10 of the molar value.

Q) Requested read-out: pKd. Entry: h20-VH4-VL3 (candidate 20.18) (antibody, human IgG4 S228P, kappa, V domains shown, hIgG4-S228P/kappa; also called h20-H4-L3) VH: QVQLVQSGAEVKKPGSSVKVSCKASGYSFTDYYINWVRQAPGQGLEWMGRIYPGIGNTYYNKKFKGRVTITADKSTSTAYMELSSLRSEDTAVYYCARGHYGRGMDYWGQGTTVTVSS VL: EIVLTQSPDSLAVSLGERATINCKSSQSLLNSIDQKNYLAWYQQKAGQSPKLLIYFASTKESGVPDRFSGSGSGTDFTLTIDSLQAEDVAVYYCQQHYSTPWTFGGGTKVEIKR
A) 8.36
